- System name: Fuc(a1-2)Gal(b1-3)[Fuc(a1-4)]GlcNAc
- Protocol text: glycan array binding signal (z-score within array); higher = stronger binding
- Test context: glycan notation: IUPAC condensed, linker removed
The entries come from a sample that favours the strongest signals as a whole.
Please use fulfilled whenever glycan array binding signal (z-score) is not below 2, and not fulfilled whenever it is.

Does the binder SJCP1531 (Schistosoma japonicum) (protein) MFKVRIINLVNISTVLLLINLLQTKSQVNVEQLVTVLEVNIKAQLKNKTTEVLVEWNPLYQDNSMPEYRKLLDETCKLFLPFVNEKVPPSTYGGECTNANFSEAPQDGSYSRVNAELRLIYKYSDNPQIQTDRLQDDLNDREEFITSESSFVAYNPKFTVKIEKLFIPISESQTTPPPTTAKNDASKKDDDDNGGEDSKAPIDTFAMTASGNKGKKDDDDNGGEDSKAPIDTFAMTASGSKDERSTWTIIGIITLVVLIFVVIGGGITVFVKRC have recorded glycan array binding signal (z-score) that is 2 or more? not fulfilled

Test whether the binder Epa2 (Candida glabrata) (protein) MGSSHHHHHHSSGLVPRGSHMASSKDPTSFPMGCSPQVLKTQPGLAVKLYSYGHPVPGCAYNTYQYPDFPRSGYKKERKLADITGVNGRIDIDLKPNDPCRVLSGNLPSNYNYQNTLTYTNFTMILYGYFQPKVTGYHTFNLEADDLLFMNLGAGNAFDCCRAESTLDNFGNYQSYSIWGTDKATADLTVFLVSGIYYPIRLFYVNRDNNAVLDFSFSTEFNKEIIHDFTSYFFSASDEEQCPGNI records glycan array binding signal (z-score) of 2 or higher. not fulfilled

Determine whether measured glycan array binding signal (z-score) meets or exceeds 2 for PLU (Photorhabdus luminiscence) (protein) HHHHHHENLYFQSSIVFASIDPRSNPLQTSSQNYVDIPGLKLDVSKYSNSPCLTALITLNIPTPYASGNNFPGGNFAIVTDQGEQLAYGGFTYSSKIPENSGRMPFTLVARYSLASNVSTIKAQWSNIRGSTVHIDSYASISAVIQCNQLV fulfilled

Does glycan array binding signal (z-score) meet or surpass 2 for LecB PA14 (Pseudomonas aeruginosa) (protein) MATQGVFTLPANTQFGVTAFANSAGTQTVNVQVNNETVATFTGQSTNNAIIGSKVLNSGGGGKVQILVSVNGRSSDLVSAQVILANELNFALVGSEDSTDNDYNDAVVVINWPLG ? fulfilled

Reported glycan array binding signal (z-score) reaches at least 2 for AcfC (Vibrio cholerae), Q57410 (protein) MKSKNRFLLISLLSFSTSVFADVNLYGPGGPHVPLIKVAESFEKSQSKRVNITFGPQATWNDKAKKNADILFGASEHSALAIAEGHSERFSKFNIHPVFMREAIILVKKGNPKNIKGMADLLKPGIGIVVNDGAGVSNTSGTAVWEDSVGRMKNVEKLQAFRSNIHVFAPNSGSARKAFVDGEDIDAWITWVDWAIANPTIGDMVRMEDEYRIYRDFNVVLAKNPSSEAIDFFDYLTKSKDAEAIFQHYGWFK ? fulfilled

Could you tell me if the measured glycan array binding signal (z-score) of Pwp7 (Candida glabrata) (protein) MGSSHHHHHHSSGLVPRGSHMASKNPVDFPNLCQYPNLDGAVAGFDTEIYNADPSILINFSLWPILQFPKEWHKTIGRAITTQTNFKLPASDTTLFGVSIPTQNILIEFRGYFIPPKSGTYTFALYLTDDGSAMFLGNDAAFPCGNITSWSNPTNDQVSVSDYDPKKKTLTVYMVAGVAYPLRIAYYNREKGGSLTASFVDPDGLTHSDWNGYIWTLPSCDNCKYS reaches 2 or more? not fulfilled

Is the recorded value of glycan array binding signal (z-score) equal to or greater than 2 for this binder? CV-IIL (Chromobacterium violaceum) (protein) AQQGVFTLPARINFGVTVLVNSAATQHVEIFVDNEPRAAFSGVGTGDNNLGTKVINSGSGNVRVQITANGRQSDLVSSQLVLANKLNLAVVGSEDGTDMDYNDSIVILNWPLG fulfilled
